Value source: PubChem BioAssay (NCI)

# TGI annotations
- Test system: KM12 colon
- test.description: NCI tumour cell line growth inhibition, 48 h
quantity.kind: TGI

>>> print(df.to_string())
                                    compound  quantity_kind  endpoint_result
 0             C=CCC(CC=O)(C(=O)OCC)C(=O)OCC            TGI         > 100 µM
 1  CC(O)C(N=Cc1nc(-c2ccccc2)oc1O)C(=O)O (configuration not stated)            TGI         > 100 µM
 2     O=C(O)CCC(=O)c1ccc2ccc3cccc4ccc1c2c34            TGI         > 100 µM
 3         Cc1ccc(C[P+]2(c3ccccc3)CCCCC2)cc1            TGI         > 100 µM
 4                    Cn1nnnc1N/N=C/c1ccccc1            TGI          > 10 µM
 5    O=C1c2ccccc2C(=O)c2c(NCCNCCO)ccc(O)c21            TGI           8.1 µM
 6  Oc1ccc(O)c(-c2cc(-c3ccccc3)nn2-c2ccccc2)c1            TGI         > 100 µM
 7  CC(=O)O[C@]1(C)OC(=O)[C@@H](C)N1[N+](=O)[O-]            TGI         > 100 µM
 8  COc1ccc2nc3cc(Cl)ccc3c(N3CCN(c4ccnc(N5CCOCC5)n4)CC3)c2c1            TGI         > 100 µM
 9               CCCCCC(=O)Nc1nc[nH]c1C(N)=O            TGI         > 100 µM
10   CN(C)c1ccc(/C=C(\C#N)c2nc3ccccc3n2C)cc1            TGI          18.4 µM
11  N#Cc1c(NCCc2ccc(F)cc2)c2ccccc2n2c1nc1ccccc12            TGI         > 100 µM
12           O=C(Nc1ccc(Cl)cc1F)c1cc(I)ccc1O            TGI          4.98 µM
13  O=C(O)C1=C(C(=O)O)N(c2ccncc2)C(c2ccco2)=CC1c1ccccc1[N+](=O)[O-] (configuration not stated)            TGI          3.36 µM
14  COc1ccc(C2=NN(C(=O)c3cc(OC)c(OC)c(OC)c3)C(c3ccc(Cl)cc3)C2)cc1OC (configuration not stated)            TGI         > 100 µM
15                  N#Cc1nc(COCc2ccccc2)oc1N            TGI         > 100 µM
16  CC(=O)O[C@H]1CC[C@@]2(C)C(=CC[C@@H]3[C@@H]2CC[C@]2(C)Nc4c(cnn4S(C)(=O)=O)C[C@@H]32)C1            TGI         > 100 µM
17  O=C1N(c2ccccc2)C(=O)C2(SC=NN2Cc2ccccc2)N1c1ccccc1 (configuration not stated)            TGI         > 100 µM
18  O=c1[nH]c(=O)n(C2OC(CO)C(O)C2O)c2ccsc12 (configuration not stated)            TGI         > 100 µM
19  C[C@@H]1CC[C@@H]2[C@@H]1[C@H](OC(=O)/C=C/c1ccccc1)[C@]1(C3CCCCC3)C[C@@H](NC(=O)CO)[C@@]2(C)O1            TGI            32 µM
20  CCSC1(SCC)CC(Cc2ccc(OC)cc2)N(C=NC(C)(C)C)C1 (configuration not stated)            TGI          64.8 µM
21  O=C(CC(C(=O)c1ccco1)c1cccs1)c1cccs1 (configuration not stated)            TGI         > 100 µM
